- assay-target: Dopamine beta-hydroxylase (Bos taurus, UniProt P15101)
- Sequence (P15101 whole entry): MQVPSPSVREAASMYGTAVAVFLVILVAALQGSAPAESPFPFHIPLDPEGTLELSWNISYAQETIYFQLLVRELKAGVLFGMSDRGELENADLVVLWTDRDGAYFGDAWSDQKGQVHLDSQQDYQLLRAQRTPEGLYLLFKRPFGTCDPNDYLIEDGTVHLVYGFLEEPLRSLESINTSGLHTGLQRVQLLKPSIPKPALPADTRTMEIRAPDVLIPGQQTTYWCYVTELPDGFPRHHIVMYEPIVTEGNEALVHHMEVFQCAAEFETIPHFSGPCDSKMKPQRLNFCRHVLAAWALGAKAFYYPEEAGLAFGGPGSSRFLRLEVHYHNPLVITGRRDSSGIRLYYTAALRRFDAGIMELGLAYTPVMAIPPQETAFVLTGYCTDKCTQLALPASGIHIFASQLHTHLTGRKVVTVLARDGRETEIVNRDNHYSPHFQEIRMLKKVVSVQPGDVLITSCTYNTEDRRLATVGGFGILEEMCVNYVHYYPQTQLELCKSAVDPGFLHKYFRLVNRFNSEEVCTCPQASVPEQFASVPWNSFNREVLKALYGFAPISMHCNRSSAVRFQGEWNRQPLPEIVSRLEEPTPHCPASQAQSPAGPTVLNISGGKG
- method: […] against bovine Dopamine beta hydroxylase […]; Range is between (4.2-5.3).
measure-name: pIC50
Schema: pIC50 number; meaning minus log10 of the concentration expressed in molar units.

-- ask For the molecule shown here, Fc1cc(F)cc(CCCn2cc[nH]c2=S)c1 , give the reported pIC50.
-- reply 5.33

---

measure-name: pIC50
Keep in mind that pIC50 stands for -log10 of concentration in molar terms.

-- ask Missing value: pIC50, Dopamine beta-hydroxylase (Bos taurus, UniProt P15101), entry S=c1[nH]ccn1Cc1cc(Cl)ccc1Cl . Fill in?
-- reply 4.01
